- tested system: T1, rat NMUR2 (rat, UniProt Q9ESQ4 1-395)
- T1 construct: whole, on cells; also called rat R2
- T1 sequence (Q9ESQ4 whole entry): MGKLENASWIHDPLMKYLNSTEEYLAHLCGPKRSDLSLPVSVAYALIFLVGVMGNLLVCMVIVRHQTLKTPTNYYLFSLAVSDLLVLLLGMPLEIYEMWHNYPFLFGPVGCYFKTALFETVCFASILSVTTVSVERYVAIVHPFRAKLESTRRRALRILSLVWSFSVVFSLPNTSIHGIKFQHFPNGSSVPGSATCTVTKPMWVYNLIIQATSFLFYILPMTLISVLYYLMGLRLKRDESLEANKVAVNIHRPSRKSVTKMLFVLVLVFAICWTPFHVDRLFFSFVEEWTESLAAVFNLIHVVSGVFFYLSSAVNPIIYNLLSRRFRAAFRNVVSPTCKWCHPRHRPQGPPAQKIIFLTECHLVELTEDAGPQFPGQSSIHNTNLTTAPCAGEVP
- procedure text: 125I-hNMU-25 displacement, cell membranes
No end group written: not given here.
quantity: IC50 (nM)
Give the quantity in nM, number only.

Input: Requested read-out: IC50. Entry: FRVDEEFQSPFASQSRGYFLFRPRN-NH2 (also called hNMU-25; native hNMU) [human NMU-25]
Output: 0.6
